Below is a list of entries, each paired with its recorded MFI value.
system: T1, human LILRB5 (human, UniProt O75023 24-590)
T1 construct: whole, on cells; also called hLILRB5
T1 sequence (O75023 24-590): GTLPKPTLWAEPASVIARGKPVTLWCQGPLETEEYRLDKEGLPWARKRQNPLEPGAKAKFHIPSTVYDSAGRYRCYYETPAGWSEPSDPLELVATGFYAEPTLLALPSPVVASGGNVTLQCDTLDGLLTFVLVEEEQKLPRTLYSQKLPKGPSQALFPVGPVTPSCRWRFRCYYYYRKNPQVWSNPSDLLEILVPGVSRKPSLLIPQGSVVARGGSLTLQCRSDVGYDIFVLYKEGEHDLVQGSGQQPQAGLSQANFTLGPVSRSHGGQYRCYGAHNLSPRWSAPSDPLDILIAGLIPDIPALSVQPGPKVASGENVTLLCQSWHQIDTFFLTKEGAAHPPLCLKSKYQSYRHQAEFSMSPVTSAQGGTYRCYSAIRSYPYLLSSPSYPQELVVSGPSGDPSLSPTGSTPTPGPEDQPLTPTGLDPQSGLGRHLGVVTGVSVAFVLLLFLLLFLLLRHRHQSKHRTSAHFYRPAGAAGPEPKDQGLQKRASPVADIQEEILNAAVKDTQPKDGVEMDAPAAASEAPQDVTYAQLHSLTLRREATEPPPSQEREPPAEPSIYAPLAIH
protocolDescription: FACS, 293F-hLILRB5 cells
The figure you give is taken to be in MFI; do not add the unit.

[
  {
    "binder": "4-E6-E4-B12 (antibody, V domains shown, mouse monoclonal hybridoma antibody) VH: EVQLKESGAELVKPGASVKLSCKASGYTFTSHWMHWVKQRPGQGLEWIGEINPSNGRTNYNEKFTSKATLTVDQSSSTAYMQLSSLTSEDSAVYYCARGNLTTVVPFDYWGQGTALTVSS VL: DIVMTQSPSSLSASLGGKVTITCKASQDINKFIAWYQHKPGKGPRLLIHFTSTLQPGIPSRFSGSGSGRDYSFSISNLEPEDIATYFCLQYDLLLTFGGGTKLEIK",
    "measurementUnit": "MFI",
    "MFI": 21.4
  },
  {
    "binder": "8-B3-F6-H8 (antibody, V domains shown, mouse monoclonal hybridoma antibody) VH: EVKVIESGGGLVQPGGSLKLSCAASGFDFSRYWMSWVRQAPGKGLEWIGEINPDSSAINYTPSLKDKFIISRDNAKNTLYLQMSKVRSEDTALYYCATSMTMDYWGQGTSVTVSS VL: DIVMTQSPSSMYASLGERVTITCKASQDIKSYLSWYQQKPWKSPKTLIYYATSLADGVPSRFSGSGSGQDYSLTISSLESDDTATYYCLQHGESPYTFGGGTKLEK",
    "measurementUnit": "MFI",
    "MFI": 16.8
  }
]

QUERY: Identify the reported MFI for the following entry. 48-E11-H7-B5 (antibody, V domains shown, mouse monoclonal hybridoma antibody) VH: EVQLVESGGGLVKPGGSLKLSCAASGFTFSSYAMSWVRQTPEKRLEWVASITIGDDTYYPDSVKGRFTISRDHAKNILYLQVSSLRSEDTAMYSCARGVNSYGSSYRYFDVWGAGTTVTVSS VL: DIVMTQSHKFMSTSVGDRVSITCKASQDVSTAVAWYQQKPGQSPKLLIYWASTRHTGVPDRFTGSGSGTDYTLTISSVQAEDLALYYCQQHYSIPFTFGAGTKLEK
RESULT: 18.9

QUERY: Please look at this binder and report its MFI: 10-H9-E3-G3 (antibody, V domains shown, mouse monoclonal hybridoma antibody) VH: EVQRVESGGGLVQPGGSRKLSCAASGFTFSSFGMHWVRQAPEKGLEWVAYISSGSSAMYYADTVKGRFTISRDNPKNTLFLQMTSLRSEDTAMYYCARSDGKGAMDYWGQGTSVTVSS VL: DIQMTQTTSSLSASLGDRVTISCRASQDISNYLNWYQQKPDGTVKLLVYYTSRLHSGVPSRFSGSGSGTDYSLTISNLEQEDIATYFCQQGNTLPWTFGGGTKLEIK
RESULT: 21.8

QUERY: Kindly indicate its recorded MFI. Item: 44-F10-B6-D4 (antibody, V domains shown, mouse monoclonal hybridoma antibody) VH: EVHLVESGGGLVKPGGSLKLSCAASGFTFSSYAMSWVRQTPEKRLEWVATISSGGSYIYYPDSVKGRFTISRDNAKNTLYLQMSSLRSEDTAMYYCARQDWDGGDYYAMDYWGQGTSVTVSS VL: DIVMTQSPSSLAVSAGEKVTMSCKSSQSVLYSSNQKNFLAWYQQKPGQSPKLLIYWASTRESGVPDRFTGSGSGTDFTLTISSVQAEDLAVYYCHQYLSSLTFGAGTKLELK
RESULT: 26.6

QUERY: Look up MFI of 2-H1-D7-E5-D5 (antibody, V domains shown, mouse monoclonal hybridoma antibody) VH: EVHLVESGGGLVQPGGSRKLSCAASGFTFSSFGMHWVRQPPEKGLEWVAYISSGSSSIYYADTVKGRFTISRDNPKNTLFLQMTSLRSEDTAMYYCARGTGTGAMDYWGQGTSVTVSS VL: DIQMTQTTSSLSASLGDRVTISCRTSQDISNYLNWYQQKPDGTVKLLIYYTSKLHSGVPSRFSGSGSGTDYSLTISNLDQEDIATYFCQQGNTLPWTFGGGTKLEIK and report it.
RESULT: 22.6

QUERY: Find the measured MFI of 26-H9-B9-B7 (antibody, V domains shown, mouse monoclonal hybridoma antibody) VH: EVQRVESGGGLVQPGGSRKLSCAASGFTFSSFGMHWVRQAPEKGLEWVAYISSGSSTIYYADTVKGRFTISRDNPKNTLFLQMTSLRSEDTAMYYCARSDGKGAMDYWGQGTSVTVSS VL: DIVMTQSTSSLSASLGDRVTISCRASQDISNYLNWYQQKPDGTVKLLIYYTSRLHSGVPSRFSGSGSGTDYSLTISNLEQEDIATYFCQQGNTLPWTFGGGTKLEIK and report it.
RESULT: 19.6
